Cited source: ChEMBL document CHEMBL4602729

assay: Selectivity index, ratio of CC50 for mouse L929 cells to IC50 for Leishmania tropica MON-102 intracellular amastigotes; assay type: toxicity, cell-based; conditions: read-out: Ratio CC50/IC50
metricName: selectivity ratio
Output spec: single numeric token, no unit.

[Q] Report selectivity ratio for `N=C(N)c1ccc(OCCCCCOc2ccc(C(=N)N)cc2)cc1` please.
[A] 10

====

test: Selectivity index, ratio of CC50 for mouse L929 cells to IC50 for Leishmania major MON-4 intracellular amastigotes; type: toxicity, cell-based; conditions: read-out: Ratio CC50/IC50
metricName: selectivity ratio
# respond with the number and nothing more

[Q] Reported selectivity ratio, compound `N=C(N)c1ccc(OCCCCCOc2ccc(C(=N)N)cc2)cc1` : ____
[A] 6
